- Species: Rattus norvegicus
- Run Description: DrugMatrix - Regimen: Daily Repeat
- Type: toxicity, organism-based, Sprague-Dawley
- Parameters: regimen Daily Repeat, gender Male, age 6-8 weeks
- Measurement Parameters: in vivo, po, 0 mg/kg, 72 h, tissue Blood, route oral GAVAGE, dose level Control, time 3 day, vehicle 100 % SALINE
Reported Metric: ABSOLUTE LYMPHOCYTE (cells/µL)
Please respond with the number in cells/µL and leave the unit unwritten.

Prompt: Dear colleague, please send me the reported ABSOLUTE LYMPHOCYTE for COc1cccc2c1C(=O)c1c(O)c3c(c(O)c1C2=O)C[C@@](O)(C(C)=O)C[C@@H]3O[C@H]1C[C@H](N)[C@H](O)[C@H](C)O1 when you can.
Response: 7570

###

- Organism: Rattus norvegicus
- Run Description: DrugMatrix - Regimen: Daily Repeat
- Type: toxicity, organism-based, Sprague-Dawley
- Parameters: regimen Daily Repeat, gender Male, age 6-8 weeks
- Measurement Parameters: in vivo, po, 0 mg/kg, 120 h, tissue Plasma, route oral GAVAGE, dose level Control, time 5 day, […]
Reported Metric: ALANINE AMINOTRANSFERASE (u/L)
The reply should contain only the number, in u/L.

Prompt: Answer with the recorded ALANINE AMINOTRANSFERASE of O=c1c(-c2ccc(O)cc2)coc2cc(O)cc(O)c12 [GENISTEIN] only.
Response: 62

Prompt: In one line, give reported ALANINE AMINOTRANSFERASE of the entry CC(=O)Oc1ccccc1C(=O)O [ASPIRIN] .
Response: 54.67

Prompt: Using known records, supply ALANINE AMINOTRANSFERASE for CCc1ccc(CCOc2ccc(CC3SC(=O)NC3=O)cc2)nc1 (configuration not stated) [PIOGLITAZONE]
Response: 36

Prompt: Check the records and state ALANINE AMINOTRANSFERASE for CCCCC(=O)N(Cc1ccc(-c2ccccc2-c2nnn[nH]2)cc1)[C@H](C(=O)O)C(C)C
Response: 68.83

Prompt: Query ALANINE AMINOTRANSFERASE for CS(=O)(=O)Nc1ccc([N+](=O)[O-])cc1Oc1ccccc1 [NIMESULIDE]
Response: 59.67

***
Prompt: Note down ALANINE AMINOTRANSFERASE recorded for c1ccoc1 [FURAN]
Response: 46.17

Prompt: Consider the compound CC(C)c1c(C(=O)Nc2ccccc2)c(-c2ccccc2)c(-c2ccc(F)cc2)n1CC[C@@H](O)C[C@@H](O)CC(=O)O [ATORVASTATIN] and give its recorded ALANINE AMINOTRANSFERASE.
Response: 62

###

- Species on record: Rattus norvegicus
- Run Description: DrugMatrix - Regimen: Daily Repeat
- Format: toxicity, organism-based, Sprague-Dawley
- Design: regimen Daily Repeat, gender Male, age 6-8 weeks
- Measurement Parameters: in vivo, po, 0 mg/kg, 72 h, tissue Plasma, route oral GAVAGE, dose level Control, time 3 day, vehicle .5 % CMC
Reported Metric: BLOOD UREA NITROGEN (mg/dL)
Value expressed in mg/dL; do not type the unit.

Study these solved cases before continuing.
Prompt: Identify the reported BLOOD UREA NITROGEN for the following entry. C[C@]12CC[C@@H]3c4ccc(O)cc4CC[C@H]3[C@@H]1C[C@@H](O)[C@@H]2O
Response: 17.33

Prompt: Indicate its recorded BLOOD UREA NITROGEN; the compound in question is CN1C(=O)CN=C(c2ccccc2)c2cc([N+](=O)[O-])ccc21
Response: 15.17

Prompt: Hello, please tell me recorded BLOOD UREA NITROGEN for this one: C[C@H]1[C@H](NC(=O)/C(=N\OC(C)(C)C(=O)O)c2csc(N)n2)C(=O)N1S(=O)(=O)O
Response: 17.67

Prompt: Write down BLOOD UREA NITROGEN measured for item COc1cc(OC)c(C(=O)CCCN2CCCC2)c(OC)c1
Response: 16.33

Prompt: Indicate the recorded BLOOD UREA NITROGEN value for this compound: CN(C)C(=O)C(CCN1CCC(O)(c2ccc(Cl)cc2)CC1)(c1ccccc1)c1ccccc1 [LOPERAMIDE]
Response: 17.33

Prompt: State its BLOOD UREA NITROGEN: C[C@@H]1O[C@@H](O[C@H]2C[C@@H](O)[C@]3(CO)[C@H]4[C@H](O)C[C@]5(C)[C@@H](C6=CC(=O)OC6)CC[C@]5(O)[C@@H]4CC[C@]3(O)C2)[C@H](O)[C@H](O)[C@H]1O
Response: 15.17

Prompt: Look up and state reported BLOOD UREA NITROGEN for CCCNC(=O)NS(=O)(=O)c1ccc(Cl)cc1 [CHLORPROPAMIDE]
Response: 18.83

Now let's try a different one.
Prompt: Output BLOOD UREA NITROGEN of CCC1=C(C)CN(C(=O)NCCc2ccc(S(=O)(=O)NC(=O)N[C@H]3CC[C@H](C)CC3)cc2)C1=O [GLIMEPIRIDE]
Response: 17.33

###

- Species: Rattus norvegicus
- Run Description: DrugMatrix - Regimen: Daily Repeat
- Type: toxicity, organism-based, Sprague-Dawley
- Design: regimen Daily Repeat, gender Male, age 6-8 weeks
- Measurement Parameters: in vivo, ip, 0.5 mg/kg, […], tissue Blood, route intraperitoneal, dose level High, time 28 day, vehicle 100 % SALINE
Reported Metric: ABSOLUTE SEGMENTED NEUTROPHIL (cells/µL)
Respond with the bare value in cells/µL.

Prompt: Item TRANSPLATIN : provide ABSOLUTE SEGMENTED NEUTROPHIL
Response: 1790

###

- Organism: Rattus norvegicus
- Run Description: DrugMatrix - Regimen: Daily Repeat
- Type: toxicity, organism-based, Sprague-Dawley
- Set-up: regimen Daily Repeat, gender Male, age 6-8 weeks
- Measurement Parameters: in vivo, ip, 10 mg/kg, […], tissue Blood, route intraperitoneal, dose level High, time 14 day, vehicle 100 % SALINE
Reported Metric: ABSOLUTE EOSINOPHIL

Prompt: Specify ABSOLUTE EOSINOPHIL for COBALTOUS CHLORIDE and stop.
Response: 76 cells/µL

###

- Species: Rattus norvegicus
- Assay type: toxicity, organism-based, Sprague-Dawley
- Measurement Parameters: in vivo, po, 10 mg/kg, 24 h, tissue Blood, route oral GAVAGE, dose level Low, time 1 day, vehicle .5 % CMC
- Description: DrugMatrix - Regimen: Single
Reported Metric: ABSOLUTE MONOCYTE
Remember to put the unit after the number in your answer.

Prompt: Tell me ABSOLUTE MONOCYTE reported for CN(C)CCN(Cc1cccs1)c1ccccn1
Response: 160 cells/µL

###

- Species on record: Rattus norvegicus
- Run Description: DrugMatrix - Regimen: Daily Repeat
- Format: toxicity, organism-based, Sprague-Dawley
- Design: regimen Daily Repeat, gender Male, age 6-8 weeks
- Measurement Parameters: in vivo, iv, 0 mg/kg, 72 h, tissue Plasma, dose level Control, time 3 day, vehicle 100 % SALINE
Here the recorded ASPARTATE AMINOTRANSFERASE is given for each entry.
Expressed in u/L, but write only the number.

Known ASPARTATE AMINOTRANSFERASE results, listed for orientation:
Prompt: For COc1cccc2c1C(=O)c1c(O)c3c(c(O)c1C2=O)C[C@@](O)(C(C)=O)C[C@@H]3O[C@H]1C[C@H](N)[C@H](O)[C@H](C)O1 , write its ASPARTATE AMINOTRANSFERASE.
Response: 101.5

Prompt: Dear colleague, please send me the reported ASPARTATE AMINOTRANSFERASE for N=C(N)c1ccc(OCCCCCOc2ccc(C(=N)N)cc2)cc1 when you can.
Response: 92.5

***
Prompt: Read off the recorded ASPARTATE AMINOTRANSFERASE for O=C(O)P(=O)(O)O
Response: 88.83

Prompt: Indicate its recorded ASPARTATE AMINOTRANSFERASE; the compound in question is O=c1[nH]c(=O)n([C@H]2C[C@H](O)[C@@H](CO)O2)cc1F
Response: 116.83

Prompt: Kindly indicate its recorded ASPARTATE AMINOTRANSFERASE. Item: C[N+](C)(C)CCOC(=O)CCC(=O)OCC[N+](C)(C)C.[Cl-].[Cl-] [SUCCINYLCHOLINE CHLORIDE]
Response: 92.5

###

- Species: Rattus norvegicus
- Run Description: DrugMatrix - Regimen: Daily Repeat
- Assay type: toxicity, organism-based, Sprague-Dawley
- Design: regimen Daily Repeat, gender Male, age 6-8 weeks
- Measurement Parameters: in vivo, po, 0 mg/kg, 120 h, tissue Blood, route oral GAVAGE, dose level Control, time 5 day, vehicle .5 % CMC
Reported Metric: EOSINOPHIL (%)
Write it as a number; the unit % goes unstated.

Below: 6 compounds and their reported EOSINOPHIL.
Prompt: Give recorded EOSINOPHIL. CCn1cc(C(=O)O)c(=O)c2cc(F)c(N3CCNC(C)C3)c(F)c21 (stereo not drawn) [LOMEFLOXACIN]
Response: 0.4

Prompt: For the compound C[C@@H]1O[C@@H](O[C@H]2C[C@@H](O)[C@]3(CO)[C@H]4[C@H](O)C[C@]5(C)[C@@H](C6=CC(=O)OC6)CC[C@]5(O)[C@@H]4CC[C@]3(O)C2)[C@H](O)[C@H](O)[C@H]1O [OUABAIN] , give its measured EOSINOPHIL value.
Response: 0.33

Prompt: Could you please provide reported EOSINOPHIL for CCC1=C(C)CN(C(=O)NCCc2ccc(S(=O)(=O)NC(=O)N[C@H]3CC[C@H](C)CC3)cc2)C1=O [GLIMEPIRIDE] ? Thanks!
Response: 1

Prompt: Provide one value: measured EOSINOPHIL of CN(C)C(=O)C(CCN1CCC(O)(c2ccc(Cl)cc2)CC1)(c1ccccc1)c1ccccc1 [LOPERAMIDE]
Response: 1

Prompt: Please report EOSINOPHIL for the following compound: COc1ccc2c(c1OC)C(=O)O[C@@H]2[C@H]1c2c(cc3c(c2OC)OCO3)CCN1C [NOSCAPINE]
Response: 1

Prompt: Fill in EOSINOPHIL for record NC(=O)N1c2ccccc2CC(=O)c2ccccc21 [OXCARBAZEPINE]
Response: 0.17

---
Prompt: Give EOSINOPHIL for CN(C)CCN(Cc1cccs1)c1ccccn1
Response: 0.62
